assay_target: rat Kv2.1 (Rattus norvegicus)
Construct: rat Kv2.1 subcloned in pEYFP-N1 (XhoI/EcoRI); homotetramer
Sequence (P15387 whole entry): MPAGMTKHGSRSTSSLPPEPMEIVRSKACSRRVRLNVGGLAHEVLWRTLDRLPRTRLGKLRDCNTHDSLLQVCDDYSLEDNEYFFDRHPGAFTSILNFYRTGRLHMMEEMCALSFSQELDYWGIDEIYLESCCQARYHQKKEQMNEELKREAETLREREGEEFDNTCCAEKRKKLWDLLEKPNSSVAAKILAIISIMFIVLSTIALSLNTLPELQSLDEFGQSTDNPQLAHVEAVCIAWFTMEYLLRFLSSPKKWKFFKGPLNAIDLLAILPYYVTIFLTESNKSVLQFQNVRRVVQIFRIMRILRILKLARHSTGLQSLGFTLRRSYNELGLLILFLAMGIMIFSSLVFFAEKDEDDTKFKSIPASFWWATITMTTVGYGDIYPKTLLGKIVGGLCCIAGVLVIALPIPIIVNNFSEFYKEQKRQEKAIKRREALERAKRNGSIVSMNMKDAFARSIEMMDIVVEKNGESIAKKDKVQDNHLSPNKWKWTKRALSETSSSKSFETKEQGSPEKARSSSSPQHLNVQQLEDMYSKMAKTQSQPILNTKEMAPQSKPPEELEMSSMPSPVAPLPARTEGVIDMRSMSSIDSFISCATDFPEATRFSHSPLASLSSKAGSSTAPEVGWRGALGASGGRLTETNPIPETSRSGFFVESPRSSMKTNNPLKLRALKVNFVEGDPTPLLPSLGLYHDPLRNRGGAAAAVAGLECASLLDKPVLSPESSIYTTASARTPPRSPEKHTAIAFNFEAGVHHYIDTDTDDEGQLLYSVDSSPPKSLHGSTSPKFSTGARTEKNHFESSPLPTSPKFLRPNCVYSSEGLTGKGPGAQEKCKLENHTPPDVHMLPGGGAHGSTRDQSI
measurement_description: whole-cell patch clamp, Hill fit of concentration-response
property_measured: IC50 (µM)

{"smiles_data": "COC(=O)C1=C(C)NC(C)=C(C(=O)OC)C1c1ccccc1[N+](=O)[O-]", "assay_target": "rat Kv2.1 (Rattus norvegicus)", "result": 37.5}
